- EXPERIMENTAL SYSTEM: T1, polypeptide GC3pep (human)
- T1 construct: also called membrane proximal polypeptide GC3pep
- T1 peptide: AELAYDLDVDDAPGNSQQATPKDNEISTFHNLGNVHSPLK
- METHOD SUMMARY: ELISA, GC3pep coated, antibody 1 nM;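 note: bound antibody detected with an HRP-conjugated secondary antibody and TMB substrate, reaction stopped with HCl, after 2 h binding at 37 °C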
VALUE KIND: OD450 nm (OD450 nm)
Give the value in OD450 nm but do not write OD450 nm after it.

F1.73.9 (antibody, human IgG1, kappa, V domains shown, human-murine chimeric antibody) VH: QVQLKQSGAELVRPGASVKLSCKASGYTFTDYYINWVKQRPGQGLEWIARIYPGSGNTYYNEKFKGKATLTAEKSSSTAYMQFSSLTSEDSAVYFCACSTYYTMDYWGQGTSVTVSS VL: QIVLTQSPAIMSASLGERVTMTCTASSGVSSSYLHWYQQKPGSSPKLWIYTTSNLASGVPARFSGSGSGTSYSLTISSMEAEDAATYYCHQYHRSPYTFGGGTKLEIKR = 0.05
F1.153.1 (antibody, human IgG1, kappa, V domains shown, human-murine chimeric antibody) VH: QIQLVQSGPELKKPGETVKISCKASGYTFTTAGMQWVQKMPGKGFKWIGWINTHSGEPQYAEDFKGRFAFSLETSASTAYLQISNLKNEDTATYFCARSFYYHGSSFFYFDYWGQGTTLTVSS VL: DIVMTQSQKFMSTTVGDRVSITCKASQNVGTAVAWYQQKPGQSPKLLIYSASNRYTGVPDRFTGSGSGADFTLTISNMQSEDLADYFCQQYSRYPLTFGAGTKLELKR = 0.04

Continue with the next binder.
Tell me the measured OD450 nm of F3.54.12 (antibody, human IgG1, kappa, V domains shown, human-murine chimeric antibody) VH: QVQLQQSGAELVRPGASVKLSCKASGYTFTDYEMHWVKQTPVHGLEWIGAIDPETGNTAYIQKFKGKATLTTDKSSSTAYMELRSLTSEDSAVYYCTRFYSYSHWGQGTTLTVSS VL: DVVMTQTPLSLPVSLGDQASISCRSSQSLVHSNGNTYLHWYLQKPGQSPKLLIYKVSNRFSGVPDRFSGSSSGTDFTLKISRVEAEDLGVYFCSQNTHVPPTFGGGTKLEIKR , please. 2.64
